Quick reference for pKd among some binders
systemName: MDM2 SWIB domain from Anguilla anguilla (European eel) (Anguilla anguilla (European eel))
method: fluorescence polarisation; displacement: complex of MDM2 (0.2-2 μM) and FITC-p53TAD_(human)^15–26 (15 nM) displaced by increasing unlabeled p53TAD peptide or p53TAD^full-length; KD calculated from IC50 (Nikolovska-Coleska et al. 2004); 20 mM sodium phosphate pH 7.4, 150 mM NaCl, 1 mM TCEP
Where no end group is shown, it is not given here.
A value of pKd is the negative decimal logarithm of a concentration given in moles per litre.

>>> valuereported("Ac-SQESFQELWKMMC [Anguilla anguilla (European eel) p53TADP1 p53TAD^15–27]")
6.72

Could you now look at the following binder, please?
Can you share its pKd? I mean this binder: Ac-SQDETFQALWNTVT [Anguilla anguilla p53TADP2 p53TAD^15–27]
5.92
